- target or system: BRD4 BD1 (Homo sapiens)
- measurement protocol: AlphaScreen binding assay, BRD4 Bromodomain 1
- Experimental: The binding of Example compounds to BRD4 Bromodomain 1 and BRD4 Bromodomain 2 was assessed using 384-well AlphaScreen assay technology. His-epitope tagged BRD4 BD144-168 and BRD4 BD2333-460 were cloned, expressed, and purified to homogeneity. BRD4 BD1 and BRD4 BD2 binding and inhibition was assessed by monitoring the engagement of biotinylated Histone H4 (1-21) K5/8/12/16 tetra-acetylated peptide with the targets using the AlphaScreen technology (PerkinElmer). […]
pIC50: −log10 of the molar value.
recorded metric: pIC50

Recorded pIC50, per entry:
>>> result("COCC(=O)N1C[C@H](C)N(C(C)=O)c2ccccc21 [Example I-738]")
"< 5.00"
>>> result("CCS(=O)(=O)Nc1cccc(-c2ccc3c(c2)N(C(=O)C2CC2)C[C@H](C)N3C(C)=O)c1 [Example I-1054]")
"5.00 to 6.00"
>>> result("CC(=O)N1c2ccc(-c3ccc(CS(N)(=O)=O)cc3)cc2N(C(=O)C2CC2)C[C@@H]1C [Example I-445]")
"6.00 to 7.00"

Provide the documented pIC50 with BRD4 BD1 (Homo sapiens) as the system for CCCn1cc(-c2ccc3c(c2)N(C(=O)c2ccco2)C[C@H](C)N3C(C)=O)cn1 [Example I-269] 6.00 to 7.00

Provide the documented pIC50 with BRD4 BD1 (Homo sapiens) as the system for CC(=O)N1c2ccc(-c3cnn(C4CCS(=O)(=O)CC4)c3)cc2N(C(=O)OC2CCC2)C[C@@H]1C [Example I-154] > 7.00

Provide the documented pIC50 with BRD4 BD1 (Homo sapiens) as the system for CC(=O)N1c2ccc(-c3cnn(CC(=O)N4CCCCC4)c3)cc2N(C(=O)C2CC2)C[C@@H]1C [Example I-661] 5.00 to 6.00

Provide the documented pIC50 with BRD4 BD1 (Homo sapiens) as the system for CC(=O)N1c2ccc(-c3ccc(S(C)(=O)=O)cc3)cc2N(C(=O)Oc2ccc3ccccc3c2)C[C@@H]1C [Example I-239] 5.00 to 6.00
